Reported furin cleavage Z-score values for a set of sequences
Target: furin, P09958;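 also: purified furin at 1:10 enzyme:substrate in 50 mM HEPES pH 7.5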
Sequence (P09958 whole entry): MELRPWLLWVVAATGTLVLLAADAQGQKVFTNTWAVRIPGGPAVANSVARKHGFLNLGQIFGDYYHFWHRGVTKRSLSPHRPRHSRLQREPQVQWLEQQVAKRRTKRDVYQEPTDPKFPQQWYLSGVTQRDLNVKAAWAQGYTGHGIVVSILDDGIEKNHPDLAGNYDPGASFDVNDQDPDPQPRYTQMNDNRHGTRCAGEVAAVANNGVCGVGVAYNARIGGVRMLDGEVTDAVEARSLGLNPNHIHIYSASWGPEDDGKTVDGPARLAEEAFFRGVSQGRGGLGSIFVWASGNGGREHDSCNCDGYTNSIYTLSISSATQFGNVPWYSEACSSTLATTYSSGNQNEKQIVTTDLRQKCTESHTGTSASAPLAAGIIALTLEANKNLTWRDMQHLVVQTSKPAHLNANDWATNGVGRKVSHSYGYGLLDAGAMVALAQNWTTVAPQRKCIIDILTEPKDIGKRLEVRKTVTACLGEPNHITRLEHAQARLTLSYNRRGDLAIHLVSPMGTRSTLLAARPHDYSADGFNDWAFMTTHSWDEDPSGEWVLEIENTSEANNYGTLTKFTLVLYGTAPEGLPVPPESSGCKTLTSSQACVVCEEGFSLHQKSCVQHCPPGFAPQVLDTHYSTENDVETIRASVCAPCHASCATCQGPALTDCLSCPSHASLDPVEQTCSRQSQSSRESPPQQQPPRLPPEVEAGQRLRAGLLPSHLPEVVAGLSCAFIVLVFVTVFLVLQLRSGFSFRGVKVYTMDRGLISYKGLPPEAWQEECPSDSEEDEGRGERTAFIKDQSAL
Test: furin cleavage Z-score vs untreated control; higher = more cleavage, active = 3.5 or more, inactive = 1 or less, 8 variable residues between constant flanks
Conditions: 7.5 min
The list shows a part of the results. The true hit rate is not given.
// no unit, no text: just the number

Known furin cleavage Z-score results, listed for orientation:
CAPTARPKRKAGNASASA [FS-913] : 4.97
CARVCCSMSYAGNASASA [HC1993] : -1.56
CARRPRDDDSAGNASASA [FS-3057] : -0.221
CAVQGLLRFCAGNASASA [HC618] : -0.0765
CARRPRHAEQAGNASASA [FS-2781] : 4.69

Task: # get_value(readout='furin cleavage Z-score', item= CARRPRLSDRAGNASASA [FS-3059] )
Output: -0.769

Task: # get_value(readout='furin cleavage Z-score', item= CAENPCHRPSAGNASASA [HC2341] )
Output: -0.397

Task: # get_value(readout='furin cleavage Z-score', item= CALPGCSFSIAGNASASA [HC245] )
Output: -0.725

Task: # get_value(readout='furin cleavage Z-score', item= CARRPRGTMQAGNASASA [FS-1920] )
Output: 4.44
